# Test system: MS2 coat protein
# method.notes: apparent KD of MS2 coat protein; designed switch direction (-1 OFF switch, 1 ON switch): 1; higher = weaker reporter binding
# condition.summary: input ligand: none
measured.attribute: apparent KD of MS2 coat protein (nM)
Field: numeric (nM). Do not append units.

### Prompt For GUGCUCGUGUGAGGAUAUGCUUCCGGGUCGGCUGCAGAAGGUACUAUUAUACAUGAGGAUCACCCAUGUCGCUUUUCUCCGGUG [salish99_SSNG1_r04_917] (Eterna round: R96, puzzle: Same State NG 1) , what is its reported apparent KD of MS2 coat protein?
### Response 38.4

### Prompt For AACGGUGCUUGAAAUAGUCACAUGAGGAUCACCCAUGUUAGGCAGGAUAUGUGUCUAAGACGACCGCAGAAGGGCUCAAGCGAU [Eternabot solution 41] (Eterna round: R96, puzzle: Same State NG 3) , what is its reported apparent KD of MS2 coat protein?
### Response 34.6

### Prompt For GUGGUCAGACAUGAGGAUCACCCAUGUGGAAUAAAUAAGGACUAGGAUAUGUAAUAUAGGAUAUAACAGAAGGAGUGGUUGGUG (Eterna round: R96, puzzle: Same State NG 3) , what is its reported apparent KD of MS2 coat protein?
### Response 60.2

### Prompt For AAAACAUGACGAGGAUAUGGUACAUGAGGAUCACCCAUGUAUGUACCACGACGCGUACGUCGAAUCCAGAAGGCGUCGUGAAAA [Mat - Same State NG 2 - JL mod - D19] (Eterna round: R96, puzzle: Same State NG 2) , what is its reported apparent KD of MS2 coat protein?
### Response 74.1

### Prompt For UUAAUUUACUGAGGAUAUCGUGUCGACUGAGUUGACAUGAGGAUCACCCAUGUGAGAAGUGGUAUCGAGAAGGCAGUUUUCUUA [JR_SSNG2_Sub025] (Eterna round: R96, puzzle: Same State NG 2) , what is its reported apparent KD of MS2 coat protein?
### Response 102

### Prompt For UGGCUCAGACGAGGAUAUAUGUCUCGAGCUUCGGCUCGAGACAUGAGGAUCACCCAUGUAAUAACAUAGAAGGCGUCUGAGCCA [SSNG2/1-A2] (Eterna round: R96, puzzle: Same State NG 2) , what is its reported apparent KD of MS2 coat protein?
### Response 37.2

### Prompt For GAGAGAGGGUGAGGAUAUUUAGUGAUAAUGAUGGGAGAAGGCACAGACAUGAGGAUCACCCAUGUGGGAAUAAUCCAGAGAGAG [Parity 10 - Jieux - Same State NG 1] (Eterna round: R96, puzzle: Same State NG 1) , what is its reported apparent KD of MS2 coat protein?
### Response 232

### Prompt For GUUAGGAAUCUAGCAUACAUGAGGAUCACCCAUGUAAGUGGGAAGGAUAUGGUACAGAAACUGUACCAGAAGGUCUUAUUAAUU [Omei SS(NG) 3 A] (Eterna round: R96, puzzle: Same State NG 3) , what is its reported apparent KD of MS2 coat protein?
### Response 63.1

### Prompt For GGAGCCGGCCUAGGAUAUUUCAUAAUAAAACAUGAGGAUCACCCAUGUAGGCCAGAAGGCCUUGGGAAGAAGGAGGUCGGCUCC [Loop Effect - U26] (Eterna round: R96, puzzle: Same State NG 2) , what is its reported apparent KD of MS2 coat protein?
### Response 47
